readout.label: melting point

Provide one value: measured melting point of COc1ccc2[nH]c(C(=O)NN=Cc3cccc(O)c3O)cc2c1
262 to 263 °C

Provide one value: measured melting point of COc1ccc2[nH]c(C(=O)NN=Cc3ccc(O)c(OC)c3)cc2c1
261 °C

Provide one value: measured melting point of COc1ccc2[nH]c(C(=O)NN=Cc3cc(OC)c(O)c(OC)c3)cc2c1
239 to 240 °C

Provide one value: measured melting point of COc1cc(C=NNC(=O)CCc2c[nH]c3ccccc23)ccc1O
157 to 158 °C

Provide one value: measured melting point of O=C(CCc1c[nH]c2ccccc12)NN=Cc1ccc(O)cc1O
239 to 240 °C

Provide one value: measured melting point of O=C(CCc1c[nH]c2ccccc12)NN=Cc1cccc(O)c1O
204 to 205 °C

Provide one value: measured melting point of COc1cc(C=NNC(=O)CCc2c[nH]c3ccccc23)cc(OC)c1O
134 to 135 °C

Provide one value: measured melting point of COc1ccc2[nH]c(C(=O)NN=Cc3ccc(O)c(O)c3)cc2c1
252 to 253 °C

###

# protocol.notes: MTT cell viability assay (cytotoxicity), SH-SY5Y
# setup.conditions: human, SH-SY5Y neuroblastoma cells
readout.label: IC50 at 24 h (µM)
The response must be a number in µM with no trailing unit.

Provide one value: measured IC50 at 24 h of COc1ccc2[nH]c(C(=O)NN=Cc3ccc(O)c(O)c3)cc2c1 [Compound 5b]
111

Provide one value: measured IC50 at 24 h of COc1ccc2[nH]c(C(=O)NN=Cc3cc(OC)c(O)c(OC)c3)cc2c1 [Compound 5f]
287

Provide one value: measured IC50 at 24 h of COc1ccc2[nH]c(C(=O)NN=Cc3ccc(O)c(OC)c3)cc2c1 [Compound 5d]
98.2

Provide one value: measured IC50 at 24 h of O=C(CCc1c[nH]c2ccccc12)NN=Cc1ccc(O)cc1O [Compound 3c]
275

Provide one value: measured IC50 at 24 h of O=C(CCc1c[nH]c2ccccc12)NN=Cc1cccc(O)c1O [Compound 3a]
120

Provide one value: measured IC50 at 24 h of COc1ccc2[nH]c(C(=O)NN=Cc3ccc(O)cc3O)cc2c1 [Compound 5c]
73.9

###

# protocol.notes: MTT cell viability assay (cytotoxicity), SH-SY5Y
# setup.conditions: human, SH-SY5Y neuroblastoma cells
readout.label: IC50 at 24 h (µM)
The response must be a number in µM with no trailing unit.

Provide one value: measured IC50 at 24 h of COc1cc(C=NNC(=O)CCc2c[nH]c3ccccc23)ccc1O
156

Provide one value: measured IC50 at 24 h of COc1ccc(C=NNC(=O)c2cc3cc(OC)ccc3[nH]2)c(O)c1
200

Provide one value: measured IC50 at 24 h of COc1ccc2[nH]c(C(=O)NN=Cc3cccc(O)c3O)cc2c1
79.3

Provide one value: measured IC50 at 24 h of O=C(CCc1c[nH]c2ccccc12)NN=Cc1ccc(O)c(O)c1
265

###

# protocol.notes: MTT cell viability assay (cytotoxicity), bEnd3
# Type: cell-based, mouse
# setup.conditions: mouse, bEnd3 brain endothelial cells, 1–500 µM
# Text: Mouse-brain endothelial cell line bEnd3 [36] (CRL-2299) was purchased from the American Type Culture Collection (ATCC, Manassas, VA, USA). […]
Record form. Attribute: IC50 at 24 h. Fill in for each entry.
The response must be a number in µM with no trailing unit.

Provide one value: measured IC50 at 24 h of O=C(CCc1c[nH]c2ccccc12)NN=Cc1ccc(O)c(O)c1
352

Provide one value: measured IC50 at 24 h of COc1ccc2[nH]c(C(=O)NN=Cc3cccc(O)c3O)cc2c1
197
